Source of measurements: patent US12060347B2

Molecular target: human PAR4 (Homo sapiens)
Sequence (Q96RI0 18-385): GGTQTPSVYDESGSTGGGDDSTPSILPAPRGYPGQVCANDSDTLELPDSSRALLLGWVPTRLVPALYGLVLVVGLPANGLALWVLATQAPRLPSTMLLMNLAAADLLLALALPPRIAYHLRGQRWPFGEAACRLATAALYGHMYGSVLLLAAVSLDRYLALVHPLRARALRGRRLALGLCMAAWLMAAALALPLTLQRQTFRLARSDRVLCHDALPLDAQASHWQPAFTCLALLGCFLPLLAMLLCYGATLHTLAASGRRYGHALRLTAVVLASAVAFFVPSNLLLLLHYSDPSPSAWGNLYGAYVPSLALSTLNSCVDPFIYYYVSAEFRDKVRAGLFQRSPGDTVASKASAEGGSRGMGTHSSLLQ
Assay: PAR4 FLIPR assay: antagonism of agonist-peptide-induced calcium mobilization in PAR4-expressing HEK293 cells
Conditions: H-Ala-Phe(4-F)-[…]NH2-induced intracellular calcium mobilization, 11-point curves
READOUT_LABEL: IC50 (nM)

Record COc1cnc2c(-c3nc4cc(F)c(OCCOC(=O)Nc5ccncc5)cc4s3)cc(C)cc2n1 , field IC50: 11

Record COc1cnc2c(-c3cc4cc(OCCOC(=O)Nc5ccnc(C)c5)c(F)cc4o3)cc(C)cc2n1 , field IC50: 1.5

Record COc1cnc2c(-c3nc4cc(F)c(OC[C@@H](C)OC(=O)Nc5ccnnc5)cc4s3)cc(C)cc2n1 , field IC50: 22

Record Cc1cc(-c2nc3c(C)cc(OCCNS(=O)(=O)c4ccc(F)cc4)cc3s2)c2ncc(COC(F)F)nc2c1 , field IC50: 1600

Record COc1cnc2c(-c3nc4c(Cl)c(F)c(OC[C@@H](C)OC(=O)Nc5ccc(C(F)(F)F)nc5)cc4s3)cc(C)cc2n1 , field IC50: 110

Record Cc1cc(-c2nc3cccc(OCCO)c3s2)c2ncc(OC(F)F)nc2c1 , field IC50: 9.3

Record COc1cnc2c(-c3nc4cc(F)c(O[C@@H](C)[C@@H](C)OC(=O)Nc5cnc(OCCO)nc5)cc4s3)cc(Cl)cc2c1 , field IC50: 1.2

Record COc1cnc2c(-c3nc4cc(F)c(OC)cc4s3)cc(CO)cc2n1 , field IC50: 1

[P] COc1cnc2c(-c3nc4c(C)cc(OCCNS(=O)(=O)c5ccc(F)cc5)cc4s3)cc(CO)cc2n1
[Q] C=C(C)c1cc(-c2nc3c(C)cc(OCCNS(=O)(=O)c4ccc(F)cc4)cc3s2)c2ncc(OC)nc2c1
Exercise: Which of the two items, P and Q , has the greater recorded IC50? Indicate your choice by writing its label.
Solution: Q
(Q: 5.4 nM, P: 2.2 nM)

[a] COc1cnc2c(-c3nc4cc(F)c(O[C@@H](C)[C@@H](C)OC(=O)Nc5ccc(OCC(F)(F)CO)nc5)nc4s3)cc(C)cc2n1
[b] COc1cnc2c(-c3nc4cc(F)c(O[C@@H](C)[C@@H](C)OC(=O)Nc5cncc(C#N)c5)cc4s3)cc(Cl)cc2c1
Exercise: Which of the two items, a and b , has the greater recorded IC50? Indicate your choice by writing its label.
Solution: b
(b: 2.2 nM, a: 1.2 nM)

[1] COc1cnc2c(-c3nc4cc(F)c(OC[C@@H](C)OC(=O)Nc5cnc(CO)nc5)nc4s3)cc(C)cc2n1
[2] COCc1cnc2c(-c3nc4c(C)cc(OC)cc4s3)cc(C)cc2c1
Exercise: Of 1 and 2 , whose reported IC50 is numerically smaller? Indicate your choice by writing its label.
Solution: 2
(2: 6.5 nM, 1: 10 nM)
